Tested on: Monoclonal antibody (mAb)
Assay: Binding affinity towards monoclonal antibody (MAb) using ELISA assay, activity expressed relative to WQMGHS=1
result-type: Relative activity

In the examples that follow, each entry is paired with its recorded Relative activity.
{"smiles-text": "CSCC[C@H](NC(=O)[C@H](CCC(N)=O)NC(=O)[C@@H](N)Cc1c[nH]c2ccccc12)C(=O)NCC(=O)N[C@@H](Cc1c[nH]cn1)C(=O)N[C@H](CO)C(=O)O", "reading": 0.64}
{"smiles-text": "CSCC[C@H](NC(=O)[C@@H](CCC(N)=O)NC(=O)[C@@H](N)Cc1c[nH]c2ccccc12)C(=O)NCC(=O)N[C@@H](Cc1c[nH]cn1)C(=O)N[C@H](CO)C(=O)O", "reading": 0.86}
{"smiles-text": "CSCC[C@@H](NC(=O)[C@@H](CCC(N)=O)NC(=O)[C@@H](N)Cc1c[nH]c2ccccc12)C(=O)NCC(=O)N[C@@H](Cc1c[nH]cn1)C(=O)N[C@@H](CO)C(=O)O", "reading": 0.75}
{"smiles-text": "CSCC[C@H](NC(=O)[C@@H](CCC(N)=O)NC(=O)[C@@H](N)Cc1c[nH]c2ccccc12)C(=O)NCC(=O)N[C@H](Cc1c[nH]cn1)C(=O)N[C@@H](CO)C(=O)O", "reading": 0.64}
{"smiles-text": "CSCC[C@@H](NC(=O)[C@@H](CCC(N)=O)NC(=O)[C@H](N)Cc1c[nH]c2ccccc12)C(=O)NCC(=O)N[C@H](Cc1c[nH]cn1)C(=O)N[C@H](CO)C(=O)O", "reading": 0.44}

(a) CSCC[C@@H](NC(=O)[C@H](CCC(N)=O)NC(=O)[C@@H](N)Cc1c[nH]c2ccccc12)C(=O)NCC(=O)N[C@H](Cc1c[nH]cn1)C(=O)N[C@H](CO)C(=O)O
(b) CSCC[C@@H](NC(=O)[C@H](CCC(N)=O)NC(=O)[C@H](N)Cc1c[nH]c2ccccc12)C(=O)NCC(=O)N[C@@H](Cc1c[nH]cn1)C(=O)N[C@@H](CO)C(=O)O
q: Lower value for measured Relative activity? Options: a , b Write down the label of the entry you select.
a: a

====

System: Monoclonal antibody (mAb)
Assay: Binding affinity towards monoclonal antibody (MAb) using ELISA assay, activity expressed relative to WQMGHS=1
result-type: Relative activity

Sample records with Relative activity:
{"smiles-text": "CSCC[C@H](NC(=O)[C@H](CCC(N)=O)NC(=O)[C@H](N)Cc1c[nH]c2ccccc12)C(=O)NCC(=O)N[C@@H](Cc1c[nH]cn1)C(=O)N[C@@H](CO)C(=O)O", "Relative activity": 1.33}
{"smiles-text": "CSCC[C@H](NC(=O)[C@@H](CCC(N)=O)NC(=O)[C@@H](N)Cc1c[nH]c2ccccc12)C(=O)NCC(=O)N[C@@H](Cc1c[nH]cn1)C(=O)N[C@@H](CO)C(=O)O", "Relative activity": 0.82}

(I) CSCC[C@@H](NC(=O)[C@@H](CCC(N)=O)NC(=O)[C@@H](N)Cc1c[nH]c2ccccc12)C(=O)NCC(=O)N[C@H](Cc1c[nH]cn1)C(=O)N[C@@H](CO)C(=O)O
(II) CSCC[C@H](NC(=O)[C@@H](CCC(N)=O)NC(=O)[C@H](N)Cc1c[nH]c2ccccc12)C(=O)NCC(=O)N[C@@H](Cc1c[nH]cn1)C(=O)N[C@@H](CO)C(=O)O
(III) CSCC[C@H](NC(=O)[C@H](CCC(N)=O)NC(=O)[C@@H](N)Cc1c[nH]c2ccccc12)C(=O)NCC(=O)N[C@@H](Cc1c[nH]cn1)C(=O)N[C@@H](CO)C(=O)O
q: Put the items in order so that reported Relative activity rises from first to last. Order the labels as requested and give them as your answer.
a: II, III, I
(II: 0.6, III: 1, I: 1.58)

====

Test system: Monoclonal antibody (mAb)
Test: Binding affinity towards monoclonal antibody (MAb) using ELISA assay, activity expressed relative to WQMGHS=1
result-type: Relative activity

{"smiles-text": "CSCC[C@@H](NC(=O)[C@@H](CCC(N)=O)NC(=O)[C@@H](N)Cc1c[nH]c2ccccc12)C(=O)NCC(=O)N[C@H](Cc1c[nH]cn1)C(=O)N[C@H](CO)C(=O)O", "Relative activity": 0.36}
{"smiles-text": "CSCC[C@H](NC(=O)[C@H](CCC(N)=O)NC(=O)[C@H](N)Cc1c[nH]c2ccccc12)C(=O)NCC(=O)N[C@H](Cc1c[nH]cn1)C(=O)N[C@H](CO)C(=O)O", "Relative activity": 1}

(a) CSCC[C@@H](NC(=O)[C@H](CCC(N)=O)NC(=O)[C@H](N)Cc1c[nH]c2ccccc12)C(=O)NCC(=O)N[C@H](Cc1c[nH]cn1)C(=O)N[C@@H](CO)C(=O)O
(b) CSCC[C@@H](NC(=O)[C@@H](CCC(N)=O)NC(=O)[C@H](N)Cc1c[nH]c2ccccc12)C(=O)NCC(=O)N[C@@H](Cc1c[nH]cn1)C(=O)N[C@H](CO)C(=O)O
(c) CSCC[C@H](NC(=O)[C@H](CCC(N)=O)NC(=O)[C@H](N)Cc1c[nH]c2ccccc12)C(=O)NCC(=O)N[C@H](Cc1c[nH]cn1)C(=O)N[C@@H](CO)C(=O)O
q: hey, can you rank those molecules up there by Relative activity? biggest number first please // list labels; follow requested order
a: a, c, b

====

System: Monoclonal antibody (mAb)
Experiment: Binding affinity towards monoclonal antibody (MAb) using ELISA assay, activity expressed relative to WQMGHS=1
result-type: Relative activity

Worked examples, 3 molecules total:
{"smiles-text": "CSCC[C@H](NC(=O)[C@@H](CCC(N)=O)NC(=O)[C@H](N)Cc1c[nH]c2ccccc12)C(=O)NCC(=O)N[C@H](Cc1c[nH]cn1)C(=O)N[C@@H](CO)C(=O)O", "reading": 1.39}
{"smiles-text": "CSCC[C@@H](NC(=O)[C@H](CCC(N)=O)NC(=O)[C@@H](N)Cc1c[nH]c2ccccc12)C(=O)NCC(=O)N[C@@H](Cc1c[nH]cn1)C(=O)N[C@@H](CO)C(=O)O", "reading": 1.01}
{"smiles-text": "CSCC[C@@H](NC(=O)[C@H](CCC(N)=O)NC(=O)[C@@H](N)Cc1c[nH]c2ccccc12)C(=O)NCC(=O)N[C@@H](Cc1c[nH]cn1)C(=O)N[C@H](CO)C(=O)O", "reading": 1.17}

(1) CSCC[C@@H](NC(=O)[C@H](CCC(N)=O)NC(=O)[C@@H](N)Cc1c[nH]c2ccccc12)C(=O)NCC(=O)N[C@H](Cc1c[nH]cn1)C(=O)N[C@@H](CO)C(=O)O
(2) CSCC[C@H](NC(=O)[C@H](CCC(N)=O)NC(=O)[C@@H](N)Cc1c[nH]c2ccccc12)C(=O)NCC(=O)N[C@H](Cc1c[nH]cn1)C(=O)N[C@@H](CO)C(=O)O
q: Please indicate which entry, 1 or 2 , has the lower recorded Relative activity value. Your answer should be the label of the entry you select.
a: 2
(2: 0.85, 1: 1.31)
